Just for reference, patent US20260258124A1 is where these values come from.

- MEASURED_ON: T1, human recombinant CD117 (c-Kit) from Sino Biological (Catalog No. 11996-H08H) (human, UniProt P10721 26-524)
- T1 construct: also called soluble antigen
- ASSAY: BLI Octet, set-up as in Example 2
// reported Kd per item
RESULT_TYPE: Kd (pM)

binder="Matterhorn (antibody, V domains shown, IgG; also called VH1/VL1.4; VH1/LC1.4) VH: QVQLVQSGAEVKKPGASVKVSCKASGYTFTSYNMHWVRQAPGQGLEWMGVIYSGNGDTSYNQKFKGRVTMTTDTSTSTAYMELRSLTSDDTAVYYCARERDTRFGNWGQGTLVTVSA VL: EIVLTQSPSSLSASVGDRVTITCRASESVDIYGSSFMHWYQQKPGKAPKLLIYLASNLESGVPSRFSGSGSGTDFTLTISSLQPEDFATYYCQQNNEDPYTFGQGTKLEIKR" result_type=Kd test_value=500
binder="Castor (antibody, V domains shown, IgG; also called VH1/VL1.11) VH: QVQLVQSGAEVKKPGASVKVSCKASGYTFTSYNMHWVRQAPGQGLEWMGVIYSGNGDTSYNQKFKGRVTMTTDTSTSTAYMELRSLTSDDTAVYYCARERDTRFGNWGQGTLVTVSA VL: EIVLTQSPSSLSASVGDRVTITCRASESVDIYGNSFMHWYQQKPGKAPKLLIYLASNLESGVPSRFSGSGSGTDFTLTISSLQPEDFATYYCQQENEDPYTFGQGTKLEIKR" result_type=Kd test_value=2200
binder="Breithorn (antibody, V domains shown, IgG; also called VH1/VL1.15; VH1/LC1.15) VH: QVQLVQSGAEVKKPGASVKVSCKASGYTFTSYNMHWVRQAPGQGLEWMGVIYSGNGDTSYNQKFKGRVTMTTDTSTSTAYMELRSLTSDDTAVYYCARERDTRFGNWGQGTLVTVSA VL: EIVLTQSPSSLSASVGDRVTITCRASESVDIYGNSFMHWYQQKPGKAPKLLIYLASNLESGVPSRFSGSGSGTDFTLTISSLQPEDFATYYCQQNNEEPYTFGQGTKLEIKR" result_type=Kd test_value=400
